Tested on: Danio rerio embryo (fli1:egfp)
Assay: body length at 72 hpf (µm); higher = longer body (less growth inhibition)
Details: 0.098 µM; exposure: 5-72 hpf
outcome_measure: body length at 72 hpf

[[record]]
compound = "CC(C)[C@H](C(=O)O[C@H](C#N)c1cccc(Oc2ccccc2)c1)c1ccc(Cl)cc1 [Esfenvalerate]"
outcome_measure = "body length at 72 hpf"
test_value = 3140

[[record]]
compound = "C=CCOC(=O)C(C)(C)OC(=O)c1cc(-n2c(=O)cc(C(F)(F)F)n(C)c2=O)ccc1Cl [Butafenacil]"
outcome_measure = "body length at 72 hpf"
test_value = 2990

[[record]]
compound = "CCOC(=O)COc1cc(-c2nn(C)c(OC(F)F)c2Cl)c(F)cc1Cl [Pyraflufen-ethyl]"
outcome_measure = "body length at 72 hpf"
test_value = 3020

[[record]]
compound = "COC(=O)N(C(=O)N1CO[C@@]2(C(=O)OC)Cc3cc(Cl)ccc3C2=N1)c1ccc(OC(F)(F)F)cc1 [Indoxacarb]"
outcome_measure = "body length at 72 hpf"
test_value = 3010

[[record]]
compound = "CO/N=C(/C(=O)OC)c1ccccc1CO/N=C(\\C)c1cccc(C(F)(F)F)c1 [Trifloxystrobin]"
outcome_measure = "body length at 72 hpf"
test_value = 3060

[[record]]
compound = "O=C(O)c1cc(Oc2ccc(C(F)(F)F)cc2Cl)ccc1[N+](=O)[O-] [Acifluorfen]"
outcome_measure = "body length at 72 hpf"
test_value = 3000

[[record]]
compound = "CCOc1cc(Oc2ccc(C(F)(F)F)cc2Cl)ccc1[N+](=O)[O-] [Oxyfluorfen]"
outcome_measure = "body length at 72 hpf"
test_value = 2990

[[record]]
compound = "CCc1nn(C)c(C(=O)NCc2ccc(C(C)(C)C)cc2)c1Cl [Tebufenpyrad]"
outcome_measure = "body length at 72 hpf"
test_value = 2960

[[record]]
compound = "CCN(Cc1c(F)cccc1Cl)c1c([N+](=O)[O-])cc(C(F)(F)F)cc1[N+](=O)[O-] [Flumetralin]"
outcome_measure = "body length at 72 hpf"
test_value = 3080


These entries and their values trace back to the supplement of paper PMC4121296.
